- Method description: Plasma half life of compound reported
- Type: ADME, cell-free
# reported half-life; entries follow

| Molecule | half-life [min] |
| --- | --- |
| C[C@@H](O)[C@H](N)C(=O)NC1(C(=O)N2CCC[C@H]2C(=O)N[C@@H](CCCN=C(N)N)C(=O)O)CC(CCN)C1 (stereo partly drawn) | 13 |
| C[C@@H]1CC[C@]1(NC(=O)[C@H](CCCCN)NC(=O)[C@@H](N)[C@@H](C)O)C(=O)N[C@@H](CCCNC(=N)N)C(=O)O (stereo in doubt; 27a) | 25 |
| C[C@@H](O)[C@H](N)C(=O)N[C@@H](CCCCN)C(=O)N1CCC[C@H]1C(=O)N[C@]1(C(=O)O)C[C@@H](CN=C(N)N)C1 | 11 |
